Assay: amyloid nucleation score (Sup35N fusion, yeast selection) (log enrichment); library NNK1; higher = more nucleation; inactive = no reads after selection;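 further: zero at mode of non-aggregating sequences after 7 days selection at 30°C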
Classification field: 1 = amyloid nucleation score at or over 0.5; -1 = amyloid nucleation score under 0.5.

{"Substance": "RTDWYGEDWHYV", "Class label": -1}
{"Substance": "FGANHCKRSNGK", "Class label": -1}
{"Substance": "LDLAGGKG", "Class label": 1}
{"Substance": "FCLFGRLVTFLAVKMYVNCE", "Class label": -1}
{"Substance": "TLHTKSGLNIMARYPMAERG", "Class label": 1}
{"Substance": "LCVRAIVRSCNSWKKYSFPR", "Class label": -1}
{"Substance": "RVSVDRPQRVGTGSPCCGGD", "Class label": 1}
{"Substance": "YMGPFVPFSRTTAYNVSTFK", "Class label": -1}
{"Substance": "GVMPWLR", "Class label": -1}
{"Substance": "EPCCDVRVKGLYMFEYYVVC", "Class label": -1}
{"Substance": "NGVVLLFFSDSADMRLCAAM", "Class label": -1}
{"Substance": "NKLRGGVGERSVLQGWIEED", "Class label": -1}
{"Substance": "GCKGGSATCSTRTWMCSWGG", "Class label": 1}
{"Substance": "LHERRYSLLSLESLIHNKSC", "Class label": -1}
{"Substance": "VRISVCNYWFMVVGMAF", "Class label": -1}
{"Substance": "LYETMTCFWMRLWSFCGSPA", "Class label": -1}
{"Substance": "YKESPYNYTWGTVLVGCMVI", "Class label": -1}
{"Substance": "HHVWGFRSMLDSLHRSDCIQ", "Class label": -1}
{"Substance": "NGYYRLSWIKWVQKDGRVRR", "Class label": 1}
{"Substance": "IQFPRLGGDTTVCDYGHVAI", "Class label": 1}
{"Substance": "GDLSLRLLG", "Class label": -1}
{"Substance": "RNASIRVTSQVCYVNS", "Class label": 1}
{"Substance": "HYVYRGQLRGHACKGWSYFG", "Class label": 1}
{"Substance": "NCTRWTLNTDVCSLDRHVPH", "Class label": -1}
{"Substance": "EAIIEWWFHDSLASHSCTEV", "Class label": 1}
{"Substance": "YVEKVSFTAIEWWRGQLQSV", "Class label": 1}
{"Substance": "YALCKLSA", "Class label": 1}
{"Substance": "NARPYRPSFILQSL", "Class label": -1}
{"Substance": "YLIVVLCRRCLMGSGYNRIG", "Class label": -1}
{"Substance": "LSFIKRMTMNMLTKLD", "Class label": 1}
{"Substance": "YSSVDDGGDQHRGLSKAGHN", "Class label": -1}
{"Substance": "LYNSGSTLI", "Class label": -1}
{"Substance": "VNHIWWEFQGVSAYSNFRRD", "Class label": -1}
{"Substance": "TCVIFLVLCQALSFPVLALC", "Class label": -1}
{"Substance": "ILHIEDAVMADWMHILMGSR", "Class label": 1}
{"Substance": "GGAQMVHTSQSRCAARGV", "Class label": -1}
{"Substance": "YMRSLFCISTQLSRAILVLP", "Class label": -1}
{"Substance": "KLYNGLQHVQAGTLVMQ", "Class label": -1}
{"Substance": "STWLLGQRRYPRHKERGRAR", "Class label": -1}
{"Substance": "MIVYNMFGMNYYLFILDG", "Class label": 1}
{"Substance": "MRGFHSQRHSIAECVAIQKG", "Class label": -1}
{"Substance": "AVKYRGNVMFKIRHIMLKCM", "Class label": -1}
{"Substance": "GIISFANRQSF", "Class label": 1}
{"Substance": "GKSEVLTFGEGAHVGRSRFY", "Class label": -1}
{"Substance": "GLTWKTFPSCPMSENNCIRH", "Class label": -1}
{"Substance": "ASNYGQWSCHPGRSLFVQFF", "Class label": 1}
{"Substance": "FWPNRLR", "Class label": -1}
{"Substance": "PQVGRAYNGGAGFLKYSTWD", "Class label": -1}
{"Substance": "FLYVNLL", "Class label": -1}
{"Substance": "SPRAWRMGHGLVGWVMEKKG", "Class label": -1}
{"Substance": "SSFSLGSTLF", "Class label": 1}
{"Substance": "KLLHLVIVDELCFVRYSGLA", "Class label": -1}
{"Substance": "DKTKLLLTLRNWLSP", "Class label": -1}
{"Substance": "FLCMPL", "Class label": -1}
{"Substance": "IIGQYMQFAYFSVDRTL", "Class label": 1}
{"Substance": "GVVITSPWGA", "Class label": 1}
{"Substance": "MQTLPIR", "Class label": -1}
{"Substance": "YNVVSSKNNTVRFVLFP", "Class label": 1}
{"Substance": "RPLVRQPGEDYIFGLSSMCL", "Class label": -1}
{"Substance": "YVPSRSGYIDFAGRNNRYSI", "Class label": -1}
{"Substance": "LETINSSGRHF", "Class label": 1}
{"Substance": "ATTLGCQWDWKWSAFGAWLQ", "Class label": -1}
{"Substance": "MKVRQDRKPYWVAESAMCVC", "Class label": -1}
{"Substance": "SAFSLIGLIVMNAGK", "Class label": 1}
{"Substance": "VLARNRWRRKWRHTRGWVRG", "Class label": -1}
{"Substance": "FFGLFQLETWA", "Class label": -1}
{"Substance": "FNDLYLGAYSRREDTNYVRL", "Class label": -1}
{"Substance": "DILDSH", "Class label": -1}
{"Substance": "TIWDSRTSFVYS", "Class label": -1}

###

Experiment: amyloid nucleation score (Sup35N fusion, yeast selection) (log enrichment); library NNK2; higher = more nucleation; inactive = no reads after selection
Classification field: Satisfied = amyloid nucleation score at or over 0.5; Not satisfied = amyloid nucleation score under 0.5.

{"Substance": "DRGECYDLIGLCHSPVCCYP", "Class label": "Not satisfied"}
{"Substance": "LVDNLR", "Class label": "Not satisfied"}
{"Substance": "NIKFHVFDLCDSPHGWLPDR", "Class label": "Not satisfied"}
{"Substance": "RTRRSSTGGRNEASGNRSAG", "Class label": "Satisfied"}
{"Substance": "HFWVLFMLEETQSKFYLQST", "Class label": "Not satisfied"}
{"Substance": "IFNDVIFNLRFC", "Class label": "Satisfied"}
{"Substance": "HPSLVAGDWRFTGPLFCSLG", "Class label": "Satisfied"}
{"Substance": "LFDSLPDYITTYYNNDAQQG", "Class label": "Not satisfied"}
{"Substance": "MNVYYHVGWNGCYSGVWRAE", "Class label": "Satisfied"}
{"Substance": "HCGYRVIELDLSRLASRSLR", "Class label": "Not satisfied"}
{"Substance": "MFLRRCSSRVDSKNGHSSKD", "Class label": "Not satisfied"}
{"Substance": "MGGGNCLVRFKRYEFPFDIP", "Class label": "Not satisfied"}
{"Substance": "KGNAVVSWDRS", "Class label": "Satisfied"}
{"Substance": "RHFHGGSSIAARAVTWAGQG", "Class label": "Satisfied"}
{"Substance": "FQSDLMINIK", "Class label": "Not satisfied"}
{"Substance": "ISLFDYGQGMFHRCFMAVKG", "Class label": "Not satisfied"}
{"Substance": "DFAFAFVVGTVLAISICVKH", "Class label": "Not satisfied"}
{"Substance": "IERRVTWFLTLARCKLPTGQ", "Class label": "Satisfied"}
{"Substance": "YLWDTIYIDLSVLLVLATSW", "Class label": "Not satisfied"}
{"Substance": "IFKSHIPW", "Class label": "Not satisfied"}
{"Substance": "FLMYFVNR", "Class label": "Satisfied"}
{"Substance": "DLVVMSLRR", "Class label": "Satisfied"}
{"Substance": "IETCKKAHRSKYTLFGLLLY", "Class label": "Not satisfied"}
{"Substance": "VLYSFSGVTPWHKYPCNCV", "Class label": "Not satisfied"}
{"Substance": "YKFRYWAYFFSDVAGVI", "Class label": "Not satisfied"}
{"Substance": "IPRSPCDKENKSRHLHVAWA", "Class label": "Not satisfied"}
{"Substance": "TSWSLVVVKVDIWPNQSVWV", "Class label": "Not satisfied"}
{"Substance": "FYRSGEHRRSCRVRVVYGEL", "Class label": "Not satisfied"}
{"Substance": "AQLRKMSSVNYV", "Class label": "Not satisfied"}
{"Substance": "VYCFNSRSNFHTLMLSSGYG", "Class label": "Not satisfied"}
{"Substance": "LYSYDLTC", "Class label": "Satisfied"}
{"Substance": "RSKLFVISNGRRMHVVLSST", "Class label": "Satisfied"}
{"Substance": "VRAYLQYR", "Class label": "Not satisfied"}
{"Substance": "MRRTPFCVWKHIYRM", "Class label": "Not satisfied"}
